biological target: T1, human CLDN18.2 (human); experiment: imaging cytometry (% fluorescent cells), OCUM1-hCLDN18.2 cells
T1 construct: over-expressed on HEK293T or OCUM-1 cells by lentivirus; KATO-III and NUGC4 gastric cancer cells express it naturally; also called hCLDN18.2; hCLDNA18.2
test-readout: EC50 (µg/mL)
One number for each entry, in µg/mL.

Below are worked cases with known answers.
binder="175D10 (antibody, human IgG1, kappa, V domains shown) VH: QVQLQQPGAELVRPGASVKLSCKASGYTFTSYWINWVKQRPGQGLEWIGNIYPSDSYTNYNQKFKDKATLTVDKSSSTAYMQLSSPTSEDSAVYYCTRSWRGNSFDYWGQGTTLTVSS VL: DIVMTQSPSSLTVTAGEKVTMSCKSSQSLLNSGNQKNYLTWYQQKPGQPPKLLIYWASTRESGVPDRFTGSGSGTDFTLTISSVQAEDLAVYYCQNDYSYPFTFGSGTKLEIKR" numeric_readout=6.54
binder="1D10 (antibody, V domains shown, murine monoclonal antibody purified from hybridoma culture supernatant; also called ID10) VH: QVQLQQPGAELVKPGASVKLSCKASGYTFTSYWMHWVKQRPGQGLEWIGMIYPNSGSINYNEKFKNKATLTVDKSSSTAYMQLSSLTSEDSAVYFCSVYFDYWGQGTTLTVSS VL: DIQGTQSPSSLSASLGERVSLTCRASQDIGSSLNWLQQEPDGTIKRLIYATSSLDSGVPKRFSVSRSGSDYSLTISSLESEDFVDYYCLQYASSPPTFGGGTKLEIK" numeric_readout=0.026
binder="5F9 (antibody, V domains shown, murine monoclonal antibody purified from hybridoma culture supernatant) VH: QVQLQQSGAELVKPGASVKLSCKASGYTFTSYWMHWVKQRPGQGLEWIGMIHPNSVSTNYNEKFKSKATLTVDKSSSTAYMQLSSLTSEDSAVYYCAVYFDYWGQGTTLTVSS VL: DIQVTQSPSSLSASLGERVSLTCRASQDIGSSLNWLQQEPDGTIKRLIYASSSLNSGVPKRFSVSRSGSDYSLTISSLESEDFVDYYCLQYATSPPTFGGGTKLEIK" numeric_readout=0.068

With those in mind, consider the next binder.
Short answer for 44A8 (antibody, V domains shown, murine monoclonal antibody purified from hybridoma culture supernatant) VH: EVRLQQSGPELVKPGASVKMSCKASGYTFTDYNMHWVKQSHGKSLEWIGYINPKNGGIRYNQKFTGKATLTVNKSSSTAYMELRSLTSEDSAVYYCARGGYYGNTLDNWGQGTSVTVSS VL: DIVMTQSPSSLTLTAGEKVTMSCKSSQSLLNSGNQKNYLTWYQQKPGQPPKLLIYWASTSESGVPDRFTGSGSGTDFTLTISSVQAEDLAIYYCQNAYFYPWTFGGGTKLEIK : EC50 was 0.097
